- Tested on: L4 stage Dirofilaria immitis worms
- assay.overview: Screening method to test activity against L4 stage larvae of Dirofilaria immitis (motility, dose response)
- Type: cell-based
- conditions: 72 h, read-out: EC50 value (motility of L4 larvae)
The reader will find reported EC50 values listed item by item below.

Consider the following illustrative entries.
Cc1nc2c(C(C)C)c(C(=O)N[C@H]3CCOc4ccccc43)cnn2c1C#N [Compound 366] : 1 to 10 µM
Cc1nc2c(C(C)(C)C)c(C(=O)N[C@H]3CCOc4ccccc43)cnn2c1-c1cc(Cl)cc(Cl)c1 [Compound 306] : < 0.001 µM
Cc1nc2c(C(C)C)c(C(=O)N[C@H]3CCOc4ccccc43)cnn2c1-c1cc(F)cc(F)c1 [Compound 175] : 0.001 to 0.01 µM

Please report the recorded EC50 for CC(C)c1c(C(=O)N[C@H]2CCOc3ccc(F)cc32)cnn2c(Cl)c(-c3cc(Cl)cc(Cl)c3)nc12 [Compound 304-0] . 1 to 10 µM

// repeat for Cc1nc2c(C(C)C)c(C(=O)N[C@H]3CCOc4ccccc43)cnn2c1[C@H]1CC[C@@H](C(F)(F)F)CC1 [Compound 326-0] and report 0.001 to 0.01 µM

// repeat for Cc1nc2c(C(C)C)c(C(=O)N[C@H]3CCOc4ccccc43)cnn2c1C1=CCC(C(F)(F)F)CC1 (some centres unmarked) [Compound 327] and report 0.001 to 0.01 µM

====

The reader will find reported pEC50 values listed item by item below.
- Test system: microfilariae of Dirofilaria immitis
- assay.overview: Screening method to test activity against microfilaria of Dirofilaria immitis (motility, dose response)
- Assay type: cell-based
- conditions: 72 h, read-out: EC50 value (motility of the microfilaria)
pEC50: −log10 of the molar value.

Consider the following illustrative entries.
Cc1nc2c(C(C)C)c(C(=O)N[C@H]3CCOc4ccccc43)cnn2c1N1CCCCC1 : > 9.00
O=C(N[C@H]1CCOc2ccccc21)c1cnn2c(-c3cc(Cl)cc(Cl)c3)cnc2c1N1CCOCC1 : 7.00 to 8.00
O=C(N[C@H]1CCOc2ccccc21)c1cnn2c(-c3cc(Cl)cc(Cl)c3)c(C(F)(F)F)nc2c1N1CCOCC1 : 6.00 to 7.00
Cc1nc2c(C(C)C)c(C(=O)N[C@H]3CCOc4ccccc43)cnn2c1[C@H]1CC[C@@H](C(F)(F)F)CC1 : 7.00 to 8.00
Cc1nc2c(C(C)(C)C)c(C(=O)N[C@H]3CCOc4ccccc43)cnn2c1-c1cc(Cl)cc(Cl)c1 : 8.00 to 9.00
Cc1nc2c(C(C)(C)F)c(C(=O)N[C@H]3CCOc4ccccc43)cnn2c1-c1cc(F)cc(F)c1 : 8.00 to 9.00
Cc1nc2c(C(C)C)c(C(=O)N[C@H]3CCOc4ccccc43)cnn2c1-c1cc(Cl)cc(Cl)c1 : 8.00 to 9.00
Cc1nc2c(C(C)C)c(C(=O)N[C@H]3CCOc4ccccc43)cnn2c1C(C)(C)C : 7.00 to 8.00

Please report the recorded pEC50 for "CC(=O)c1nc2c(C(C)C)c(C(=O)N[C@H]3CCOc4ccccc43)cnn2c1-c1cc(Cl)cc(Cl)c1" . 7.00 to 8.00

// repeat for "CC(C)c1c(C(=O)N[C@H]2CCOc3ccccc32)cnn2c(-c3cc(Cl)cc(Cl)c3)cnc12" and report 7.00 to 8.00

// repeat for "Cc1nc2c(C(C)C)c(C(=O)N[C@H]3CCOc4ccccc43)cnn2c1-c1cc(F)cc(F)c1" and report 8.00 to 9.00

// repeat for "C=C(C)c1c(C(=O)N[C@H]2CCOc3ccccc32)cnn2c(-c3cc(F)cc(F)c3)c(C)nc12" and report 7.00 to 8.00

// repeat for "Cc1nc2c(C(C)(C)C)c(C(=O)NN3CCOc4ccccc43)cnn2c1-c1cc(Cl)cc(Cl)c1" and report 8.00 to 9.00

// repeat for "Cc1nc2c(C(C)C)c(C(=O)N[C@H]3CCOc4ccccc43)cnn2c1CC(C)C" and report 7.00 to 8.00

The values you see were collected from patent US12312356B2.
